Target: UniProt:P46663
Sequence (P46663 1-353): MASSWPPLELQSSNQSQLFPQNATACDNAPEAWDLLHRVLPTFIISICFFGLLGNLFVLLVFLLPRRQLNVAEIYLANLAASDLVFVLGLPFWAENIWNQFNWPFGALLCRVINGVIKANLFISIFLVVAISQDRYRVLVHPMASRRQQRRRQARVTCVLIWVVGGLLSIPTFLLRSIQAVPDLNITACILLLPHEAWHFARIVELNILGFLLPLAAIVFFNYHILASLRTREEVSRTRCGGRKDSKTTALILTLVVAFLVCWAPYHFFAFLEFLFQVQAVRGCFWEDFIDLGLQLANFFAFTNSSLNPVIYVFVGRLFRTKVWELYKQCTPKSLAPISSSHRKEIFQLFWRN
Exercise: for every item that follows, state its recorded pKi.
# pKi = -log10(concentration in molar units)

Given "COc1cc(C)c(S(=O)(=O)N(C)CCOCC(=O)N(C)C2CCN(C(=O)CCN3CCCC3)CC2)c(C)c1" , state its recorded pKi. 8.26

Given "COc1cc(C)c(S(=O)(=O)N(C)CCOCC(=O)N(C)[C@H]2CC[C@@H](CCN3CCOCC3)CC2)c(C)c1" , state its recorded pKi. 8.92

Given "COc1cc(C)c(S(=O)(=O)N(C)CCOCC(=O)N(C)CC2CCN(c3ccnc(C)c3)CC2)c(C)c1" , state its recorded pKi. 8.62

Given "COc1cc(C)c(S(=O)(=O)N(C)CCOCC(=O)N(C)[C@@H]2CCC[C@H](N3CCN(C)CC3)C2)c(C)c1" , state its recorded pKi. 8.06

Given COc1cc(C)c(S(=O)(=O)N(C)CCOCC(=O)N(C)Cc2ccc(N3CCC(N(C)C)C3)cc2Cl)c(C)c1 (stereo not shown) , state its recorded pKi. 8.06

Given COc1cc(C)c(S(=O)(=O)N(C)CCOCC(=O)N(C)CC2CCC(N3CCC(N(C)C)CC3)CC2)c(C)c1 (stereo not shown) , state its recorded pKi. 8.29

Given "COc1cc(C)c(S(=O)(=O)N(C)CCC(=O)NC2CCN(c3ncc(CN4CCCC4)cc3Cl)CC2)c(C)c1" , state its recorded pKi. 8.31

---

Exercise: for every item that follows, state its recorded Ki.
The figure you give is taken to be in nM; do not add the unit.

# query: Ki | item COc1cc(C)c(S(=O)(=O)N(C)CCOCC(=O)N(C)C(C)c2ccc3c(c2)CCN(C)CC3)c(C)c1 (stereo not shown) | system: hBK1 receptor (Homo sapiens, UniProt P46663) 6.3

# query: Ki | item "COc1cc(C)c(S(=O)(=O)N(C)CCOCC(=O)N(C)[C@H]2CC[C@@H](CCN3CCC3)CC2)c(C)c1" | system: hBK1 receptor (Homo sapiens, UniProt P46663) 2.8

# query: Ki | item "COc1cc(C)c(S(=O)(=O)N(C)CC(=O)NCC(=O)N(C)Cc2ccc(NCCN(C)C)cc2)c(C)c1" | system: hBK1 receptor (Homo sapiens, UniProt P46663) 3.2

# query: Ki | item "COc1cc(C)c(S(=O)(=O)N(C)CCOCC(=O)N(C)[C@@H]2CCN(C3CCN(C(C)C)CC3)C2)c(C)c1" | system: hBK1 receptor (Homo sapiens, UniProt P46663) 0.74

# query: Ki | item COc1cc(C)c(S(=O)(=O)N(C)CCOCC(=O)N(C)Cc2ccc(OCC3CCCN3C)cc2)c(C)c1 (stereo not shown) | system: hBK1 receptor (Homo sapiens, UniProt P46663) 9.3

# query: Ki | item "COc1cc(C)c(S(=O)(=O)N(C)CCOCC(=O)N(C)Cc2ccc(CNC(C)C)cc2)c(C)c1" | system: hBK1 receptor (Homo sapiens, UniProt P46663) 6.3

# query: Ki | item "CCN1CCC(N2CC[C@H](N(C)C(=O)COCCN(C)S(=O)(=O)c3c(C)cc(OC)cc3C)C2)CC1" | system: hBK1 receptor (Homo sapiens, UniProt P46663) 2.7

# query: Ki | item "COc1cc(C)c(S(=O)(=O)N(C)CCOCC(=O)N(C)[C@H]2CC[C@@H](OCCN(C)C)CC2)c(C)c1" | system: hBK1 receptor (Homo sapiens, UniProt P46663) 9.7

# query: Ki | item COc1cc(C)c(S(=O)(=O)N(C)CCOCC(=O)N(C)C2CCC(N3CCC(N4CCCC4)CC3)CC2)c(C)c1 (stereo not shown) | system: hBK1 receptor (Homo sapiens, UniProt P46663) 1

# query: Ki | item "COc1cc(C)c(S(=O)(=O)N(C)CCOCC(=O)N(C)Cc2ccc(CNC3CCCC3)cc2)c(C)c1" | system: hBK1 receptor (Homo sapiens, UniProt P46663) 2.8

# query: Ki | item "COc1cc(C)c(S(=O)(=O)N(C)CCOCC(=O)N(C)Cc2ccc3nc(N)ccc3c2)c(C)c1" | system: hBK1 receptor (Homo sapiens, UniProt P46663) 4.4

# query: Ki | item "CCN(CC)CC1CCN(c2ccc(NC(=O)CCN(C)S(=O)(=O)c3c(C)cc(OC)cc3C)cc2Cl)CC1" | system: hBK1 receptor (Homo sapiens, UniProt P46663) 7.1

# query: Ki | item COc1cc(C)c(S(=O)(=O)N(C)CCOCC(=O)N(C)C2CCCN(C3CCN(C)CC3)CC2)c(C)c1 (stereo not shown) | system: hBK1 receptor (Homo sapiens, UniProt P46663) 9

# query: Ki | item "COc1cc(C)c(S(=O)(=O)N(C)CCOCC(=O)N(C)C2CCN(C3CCN(C)CC3)CC2)c(C)c1" | system: hBK1 receptor (Homo sapiens, UniProt P46663) 7.5

# query: Ki | item "COc1cc(C)c(S(=O)(=O)N(C)CCC(=O)Nc2ccc(N3CCN(c4cc[n+](C)cc4)CC3)cc2)c(C)c1" | system: hBK1 receptor (Homo sapiens, UniProt P46663) 4.8

# query: Ki | item "COc1cc(C)c(S(=O)(=O)N(C)CCOCC(=O)N(C)Cc2ccc(OCCN3CCCC3)cc2)c(C)c1" | system: hBK1 receptor (Homo sapiens, UniProt P46663) 3.5

Origin of values: patent US7858618B2
